SPOT peptide array binding signal intensity reference
ASSAYED TARGET: AgFus1
ASSAY REMARKS: SPOT peptide array binding signal intensity (averaged, normalized) (arbitrary units (background-subtracted, floor 0; scale differs between SH3 domains)); higher = stronger binding of the SH3 domain to the peptide

>  <BINDER>
YHSRRHPLALGFKYV

>  <ENDPOINT VALUE>
566

$$$$

Exercise: Requested read-out: SPOT peptide array binding signal intensity. Entry: VPKEPAPAPPPEPDM
Solution: 4.75

Exercise: Now consider PSTMDFPKLPSFQNS .
Solution: 347

Exercise: Now consider RKNRAPPQRPRFNRD .
Solution: 501

Exercise: Now consider MSPLGAPPPPPHKDH .
Solution: 1.5

Exercise: Now consider SLSRRRFSLPSMPNV .
Solution: 404

Exercise: Now consider TTNRGPPPLPPRANV .
Solution: ≤ 0

Reference source: the supplement of paper PMC4466140
